The reported numbers originate from ChEMBL document CHEMBL1137570.

assay: Cytotoxicity againat taxol-resistant human A549T24 cells after 72 hrs by MTT assay; format: functional, cell-based; settings: A549, 72 h
The compounds listed here are annotated with their pIC50.
Expect pIC50 as a plain number equal to -log10 of the molar concentration.

Here's what some known entries look like.
O=c1cc(-c2ccccc2)[nH]c2ccc3c(ccn3CC3CC3)c12 ... 7.70
CC(=O)O[C@H]1C(=O)[C@@]2(C)[C@H]([C@H](OC(=O)c3ccccc3)[C@]3(O)C[C@H](OC(=O)[C@H](O)[C@@H](NC(=O)c4ccccc4)c4ccccc4)C(C)=C1C3(C)C)[C@]1(OC(C)=O)CO[C@@H]1C[C@@H]2O [PACLITAXEL] ... 6.99
CCCCCn1ccc2c3c(=O)cc(-c4ccccc4)[nH]c3ccc21 ... 7.40

(Q) I have this compound here, `Cn1ccc2c3c(=O)cc(-c4ccccc4)[nH]c3ccc21` , and I need its recorded pIC50.
(A) 6.70
